# ASSAY NAME: clinical
# ASSAY CONDITIONS: human, in vivo, 0.8 mg/kg, Geometric mean terminal half-life
MEASUREMENT TYPE: half-life

molecule="COc1c(OCCCN2CCOCC2)ccc2c1N=C(NC(=O)c1cnc(N)nc1)N1CCN=C21 [copanlisib, Copanlisib]" measurement_type=half-life measured_value="~36 h"
